System: NCI-H460
TEST_SUMMARY: NCI tumour cell line growth inhibition, 48 h
The source made the active and inactive calls. No stated cut-off is given here; in the data, active = GI50 up to about 1.1 µM and inactive = higher.
Thanks in advance; please answer with one of these: true (1) (active), false (0) (inactive)

Asked: Kindly provide the recorded test outcome for the following molecule: C[C@]12CCC(N3CCCC3)CC1=CC[C@@H]1[C@@H]2CC[C@]2(C)C(O)[C@H](n3ccnc3)C[C@@H]12 (stereo partly drawn)
Given back: false (0)

Asked: Kindly provide the recorded test outcome for the following molecule: CC(C)(C)OC(=O)N/C=C1\C(=O)Oc2ccccc2C1=O
Given back: false (0)

Asked: Kindly provide the recorded test outcome for the following molecule: CCCCCCc1cc2cc(-c3csc(CC#N)n3)c(=O)oc2cc1O
Given back: false (0)

Asked: Kindly provide the recorded test outcome for the following molecule: O=c1cc(O)c1=O
Given back: false (0)

Asked: Kindly provide the recorded test outcome for the following molecule: O=C(OCc1ccccc1)c1ccc(NCc2cc(O)ccc2O)cc1
Given back: false (0)

Asked: Kindly provide the recorded test outcome for the following molecule: O=C(NCCCN1CCN(CCCNC(=O)c2cc(-c3ccccc3)nc3ccccc23)CC1)c1cc(-c2ccccc2)nc2ccccc12
Given back: false (0)

Asked: Kindly provide the recorded test outcome for the following molecule: COc1ccccc1N1CCN(S(=O)(=O)c2ccc(Cl)cc2)C1=N
Given back: false (0)

Asked: Kindly provide the recorded test outcome for the following molecule: CC#CCCCC1(C)CCCNC1=S (stereo not drawn)
Given back: false (0)

Asked: Kindly provide the recorded test outcome for the following molecule: O=c1[nH]/c(=C/c2ccc(OCc3ccccc3)cn2)c(=O)[nH]/c1=C/c1cccnc1
Given back: true (1)

Asked: Kindly provide the recorded test outcome for the following molecule: NC(=O)OCC(COc1ccc(Cl)cc1)OC(=O)c1cc([N+](=O)[O-])cc([N+](=O)[O-])c1 (stereo not drawn)
Given back: false (0)

Asked: Kindly provide the recorded test outcome for the following molecule: C=C1CC(CNc2cc(Cl)nc(N)n2)C1
Given back: false (0)

Asked: Kindly provide the recorded test outcome for the following molecule: N#Cc1ccc(Oc2cccc(Oc3ccccc3)c2)cc1C#N
Given back: false (0)

Asked: Kindly provide the recorded test outcome for the following molecule: CC(C)SC1SCC2C(=O)N(C)C3(CC3C)C(=O)OCC(NC(=O)c3nc4ccccc4cc3O)C(=O)NC(C)C(=O)N(C)C1C(=O)N(C)C1(CC1C)C(=O)OCC(NC(=O)c1nc3ccccc3cc1O)C(=O)NC(C)C(=O)N2C (stereo not drawn)
Given back: true (1)

Asked: Kindly provide the recorded test outcome for the following molecule: Clc1ccc(Oc2ccc(/N=C/c3ccc(Cl)cc3Cl)cc2Cl)cc1
Given back: false (0)

Asked: Kindly provide the recorded test outcome for the following molecule: COc1cc(CC(C)=O)cc(OC)c1
Given back: false (0)

Asked: Kindly provide the recorded test outcome for the following molecule: COc1cc(C=O)c(-c2cc3c(cc2C=O)OCO3)c(OC)c1OC
Given back: false (0)

Asked: Kindly provide the recorded test outcome for the following molecule: COC(=O)C1=C(O)CCCC(CCC(C)=O)=C1
Given back: false (0)

Asked: Kindly provide the recorded test outcome for the following molecule: COC(=O)c1cc(NC(=O)Cn2c3ccccc3c3ccccc32)cn1C
Given back: false (0)

Asked: Kindly provide the recorded test outcome for the following molecule: FC(F)(Sc1nc2ccccc2[nH]1)c1nc2ccccc2o1
Given back: false (0)

Asked: Kindly provide the recorded test outcome for the following molecule: CCN1CCCC(C#N)(c2ccccc2)CC1 (stereo not drawn)
Given back: false (0)

Asked: Kindly provide the recorded test outcome for the following molecule: CCN(CC)CC(=O)O[C@]1(CC)C(=O)OCc2c1cc1n(c2=O)Cc2cc3ccccc3nc2-1
Given back: true (1)

Asked: Kindly provide the recorded test outcome for the following molecule: OC1(c2ccc(Cl)cc2)c2ccccc2-c2nc3ccccc3n21 (stereo not drawn)
Given back: false (0)

Asked: Kindly provide the recorded test outcome for the following molecule: NCC1Nc2ccccc2[C@@H](O)C1O (stereo partly drawn)
Given back: false (0)

Asked: Kindly provide the recorded test outcome for the following molecule: Oc1ccccc1C1=NOC(c2ccc(C(F)(F)F)cc2)C1 (stereo not drawn)
Given back: false (0)

Asked: Kindly provide the recorded test outcome for the following molecule: O=c1c2cccnc2[s+]([O-])n1Cc1ccccc1 (stereo not drawn)
Given back: false (0)

Asked: Kindly provide the recorded test outcome for the following molecule: CCOC(=O)C1=NOC2(C=C(Br)C(=O)C(Br)=C2)C1
Given back: false (0)

Asked: Kindly provide the recorded test outcome for the following molecule: CCNC(=O)COc1ccc(Cl)c(C)c1
Given back: false (0)

Asked: Kindly provide the recorded test outcome for the following molecule: O=S(=O)(O)CCS [MESNA]
Given back: false (0)

Asked: Kindly provide the recorded test outcome for the following molecule: C/C(CCn1[nH]c(=O)ccc1=O)=N\NC(=O)C(N)=O
Given back: false (0)

Asked: Kindly provide the recorded test outcome for the following molecule: CCOC(=O)CCC(NC(=O)OCc1ccccc1)C(=O)NNC(=O)OC(C)(C)C (stereo not drawn)
Given back: false (0)

Asked: Kindly provide the recorded test outcome for the following molecule: CC1(C)CC(c2c[nH]c3ccccc23)=CC2=Nc3ccccc3C21O (stereo not drawn)
Given back: false (0)

Asked: Kindly provide the recorded test outcome for the following molecule: CC(CCCOC(c1ccccc1)(c1ccccc1)c1ccccc1)OC(=O)Nc1ccccc1 (stereo not drawn)
Given back: false (0)

Asked: Kindly provide the recorded test outcome for the following molecule: CCOC(=O)C1=C(C)N(c2ccc(C)cc2)C2=C(C(=O)N(c3ccccc3)C2c2ccccc2)C1c1ccccc1 (stereo not drawn)
Given back: false (0)

Asked: Kindly provide the recorded test outcome for the following molecule: COc1cc2oc(-c3ccc4c(c3)OCO4)c(OC)c(=O)c2c(O)c1OC
Given back: false (0)

Asked: Kindly provide the recorded test outcome for the following molecule: O=C(C(=C(I)I)c1ccccc1)c1ccccc1
Given back: false (0)

Asked: Kindly provide the recorded test outcome for the following molecule: COC(=O)[C@H](Cc1ccccc1)NP(=O)(O)OCC1OC(n2cc(C)c(=O)[nH]c2=O)CC1N=[N+]=[N-] (stereo partly drawn)
Given back: false (0)

Asked: Kindly provide the recorded test outcome for the following molecule: CNC(Cc1ccccc1)c1cccc(OC)c1O (stereo not drawn)
Given back: false (0)

Asked: Kindly provide the recorded test outcome for the following molecule: C[C@]12[C@@H]3CC[C@H]1[C@@H](O)C(=O)N2CC3
Given back: false (0)

Asked: Kindly provide the recorded test outcome for the following molecule: CN1CC2=C(N=C(S)NC2c2ccccc2Cl)/C(=C/c2ccccc2Cl)C1 (stereo not drawn)
Given back: false (0)

Asked: Kindly provide the recorded test outcome for the following molecule: Cc1c(N2C(=O)C(Cl)C2/C=C/c2ccccc2)c(=O)n(-c2ccccc2)n1C (stereo not drawn)
Given back: false (0)

Asked: Kindly provide the recorded test outcome for the following molecule: COc1cc2cc3c4cc(OC)c(OC)cc4cc[n+]3c(C)c2cc1OC.O=C([O-])CS(=O)(=O)O
Given back: false (0)

Asked: Kindly provide the recorded test outcome for the following molecule: N=C(N)NS(=O)(=O)c1ccc(NNc2c3ccccc3nc3ccccc23)cc1
Given back: false (0)

Asked: Kindly provide the recorded test outcome for the following molecule: COc1ccc2[nH]c3c(c2c1)CC(=O)N1CCC[C@H](C1)CC31OCCCO1
Given back: false (0)
